Data origin, for the record: paper PMC12705226

Tested on: RAW264.7 cells
Experiment: Determination of NO production in LPS-treated RAW264.7 cells (Griess reagent)
Format: cell-based
Details: Mus musculus; RAW264.7 cells, 1 µg mL^−1 LPS, 24 h; read-out: NO production (IC50)
METRIC: IC50 (nM)

{"COMPOUND": "CC1=C(O)C(=O)C=C2C1=CC=C1[C@@]2(C)CC[C@@]2(C)[C@@H]3C[C@](C)(C(=O)O)CC[C@]3(C)CC[C@]12C [Celastrol, reference compound]", "REPORTED": 1200}

---

# maps each entry to its pIC50
Molecular target: α-glucosidase (Saccharomyces cerevisiae, UniProt P38158)
Sequence (P38158 whole entry): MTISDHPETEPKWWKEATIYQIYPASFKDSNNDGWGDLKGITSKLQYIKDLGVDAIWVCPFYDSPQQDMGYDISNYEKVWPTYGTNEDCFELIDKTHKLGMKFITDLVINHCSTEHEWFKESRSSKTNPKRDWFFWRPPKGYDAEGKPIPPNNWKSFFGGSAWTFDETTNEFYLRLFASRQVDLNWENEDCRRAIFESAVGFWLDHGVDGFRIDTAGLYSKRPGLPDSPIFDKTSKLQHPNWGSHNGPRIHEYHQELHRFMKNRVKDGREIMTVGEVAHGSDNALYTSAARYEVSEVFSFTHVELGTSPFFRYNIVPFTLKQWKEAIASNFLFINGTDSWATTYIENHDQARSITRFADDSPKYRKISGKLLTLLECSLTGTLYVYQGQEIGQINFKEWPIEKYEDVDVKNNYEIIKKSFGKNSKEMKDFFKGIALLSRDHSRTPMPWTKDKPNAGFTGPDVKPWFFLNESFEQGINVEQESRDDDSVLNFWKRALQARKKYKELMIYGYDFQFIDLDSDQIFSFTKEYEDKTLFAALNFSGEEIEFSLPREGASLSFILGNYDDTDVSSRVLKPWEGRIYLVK
Assay: biochemical
Description: The α-glucosidase inhibitory assay was performed using a somewhat modified method of Kurihara et al.[44] […] Mixture after reaction will be measured at a wavelength of 401 nm. […] The percentage inhibition was calculated using the following equation: α-glucosidase inhibition (%) = (Ac − At)/Ac × 100, where Ac is the absorbance of control (α-glucosidase, without sample) and At is the absorbance of test samples (α-glucosidase, with sample). […]
pIC50: −log10 of the molar value.
METRIC: pIC50

{"MOLECULE": "CC(C)CCCC(C)C1CCC2C3CCC4CC(O)CCC4(C)C3CCC12C (stereo not shown) [Compound 2, cholestanol]", "METRIC": "pIC50", "REPORTED": "< 4.30"}
{"MOLECULE": "COc1cc(-c2oc3cc(O)cc(O)c3c(=O)c2O)ccc1O [Compound 5, isorhamnetin]", "METRIC": "pIC50", "REPORTED": "< 4.30"}
{"MOLECULE": "O=c1c(O)c(-c2ccc(O)c(O)c2)oc2cc(O)cc(O)c12 [Compound 4, quercetin]", "METRIC": "pIC50", "REPORTED": "< 4.30"}
{"MOLECULE": "CC[C@H](CC[C@@H](C)[C@H]1CC[C@H]2[C@@H]3CCC4=CC(=O)CC[C@]4(C)[C@H]3CC[C@]12C)C(C)C (stereo in doubt) [Compound 3, stigmast-4-en-3-one]", "METRIC": "pIC50", "REPORTED": "< 4.30"}
